Counter-ions that a name gives are not always drawn.
Items are presented alongside their recorded melting point.

Use the examples below as a reference point.
>>> observedvalue("CS(=O)(=O)Nc1cc(C(O)CNC2CCN(c3ccc(C=C4SC(=O)NC4=O)cc3)CC2)ccc1O (stereo not drawn)")
"> 200 °C (dec.)"
>>> observedvalue("CS(=O)(=O)Nc1cc(C(O)CNC2CCN(c3ccc(C=C4NC(=O)NC4=O)cc3)CC2)ccc1O (stereo not drawn) [Example 85]")
"> 201 °C (dec.)"
>>> observedvalue("CS(=O)(=O)Nc1ccc(C(O)CNC2CCN(c3ccc(CC4SC(=O)NC4=O)cc3)CC2)cn1 (stereo not drawn) (as salt: salt) [Example 138]")
"57 to 59 °C"
>>> observedvalue("O=C1NC(=O)C(Cc2ccc(N3CCC(NC[C@H](O)COc4ccccc4)CC3)cc2)S1 (stereo partly drawn) [Example 73]")
"218 to 220 °C"
>>> observedvalue("O=C1NC(=O)C(Cc2ccc(N3CCC(NCC(O)COc4cccc5[nH]c(=O)[nH]c45)CC3)cc2)N1 (stereo not drawn) [Example 86]")
"> 132 °C (dec.)"
>>> observedvalue("O=C1NC(=O)C(=Cc2ccc(N3CCC(NC[C@H](O)COc4ccc(O)cc4)CC3)cc2)S1 [Example 76]")
"> 208 °C (dec.)"
>>> observedvalue("CC(C)C[C@@H](CO)NC(=O)c1ccc(N2CCC(NC[C@H](O)c3ccc(O)c(NS(C)(=O)=O)c3)CC2)cc1 [Example 211]")
"120 to 122 °C"
>>> observedvalue("CS(=O)(=O)Nc1cc([C@@H](O)CNC2CCN(c3ccc(-c4cc(=O)[nH][nH]4)cc3)CC2)ccc1O [Example 146]")
"225 to 227 °C"
>>> observedvalue("CS(=O)(=O)Nc1cc([C@@H](O)CNC2CCN(c3ccc(C(=O)NCCC(=O)O)cc3)CC2)ccc1O [Example 195]")
"> 170 °C (dec.)"
>>> observedvalue("CCOC(=O)CN1C(=O)SC(Cc2ccc(N3CCC(NC[C@H](O)c4ccc(O)c(NS(C)(=O)=O)c4)CC3)cc2)C1=O (stereo partly drawn) [Example 66]")
"153 to 155 °C"

Return value of melting point for input COC(=O)[C@H](CC(C)C)NC(=O)c1ccc(N2CCC(NCC(O)c3ccc(O)c(NS(C)(=O)=O)c3)CC2)cc1 (stereo partly drawn) [Example 209] , no commentary.
> 90 °C (dec.)

State its melting point: COC(=O)[C@H](Cc1ccccc1)NC(=O)c1ccc(N2CCC(NC[C@H](O)c3ccc(O)c(NS(C)(=O)=O)c3)CC2)cc1 [Example 204]
> 98 °C (dec.)

For the compound CS(=O)(=O)Nc1cc(C(O)CNC2CCN(c3ccc(C=C4SC(=O)NC4=O)cc3F)CC2)ccc1O (stereo not drawn) [Example 71] , give its reported melting point.
> 225 °C

Look up and report measured melting point for this entry: O=C1NC(=O)C(Cc2ccc(N3CCC(NC[C@H](O)c4csc(C(F)(F)F)n4)CC3)cc2)S1 (stereo partly drawn) [Example 106]
108 to 113 °C

Consider the compound O=C1NC(=O)C(Cc2ccc(N3CCC(NC[C@H](O)COc4ccc(O)cc4)CC3)cc2)S1 (stereo partly drawn) [Example 81] . State its measured melting point.
> 160 °C (dec.)
